Tested on: Escherichia coli TOP10
RUN_DESCRIPTION: shrunken log2 fold change of peptide-encoding DNA abundance (4.5 h post-induction vs induction); higher = less antimicrobial activity (less host growth inhibition)
MEASUREMENT_CONDITIONS: time post-induction: 4.5 h; library: site-saturation at positions 5, 18, 19, 20
Assign classes using reported shrunken log2 fold change values and the ranges LOW = under -0.05, MID = from -0.05 up to 0.1, HIGH = 0.1 and over, please.

Reference set, count: 8
RRIRFRPPRLPRPRPRPDHVPRP | MID
RRIRHRPPRLPRPRPRPLHTPRP | HIGH
RRIRQRPPRLPRPRPRPRLTPRP | HIGH
RRIRMRPPRLPRPRPRPLTTPRP | HIGH
RRIRNRPPRLPRPRPRPSAHPRP | LOW
RRIRGRPPRLPRPRPRPGYDPRP | HIGH
RRIRARPPRLPRPRPRPERYPRP | MID
RRIRPRPPRLPRPRPRPVYMPRP | LOW

Request: Category of RRIRERPPRLPRPRPRPQPPPRP , please.
Result: HIGH

Request: Category of RRIRERPPRLPRPRPRPQKEPRP , please.
Result: MID

Request: Category of RRIRQRPPRLPRPRPRPLNNPRP , please.
Result: LOW

* * *

Tested on: Escherichia coli TOP10
RUN_DESCRIPTION: shrunken log2 fold change of peptide-encoding DNA abundance (4.5 h post-induction vs induction); higher = less antimicrobial activity (less host growth inhibition)
MEASUREMENT_CONDITIONS: time post-induction: 4.5 h; library: site-saturation at positions 5, 18, 19, 20
For each entry below, report its shrunken log2 fold change value.

The following sequences have reported results that may help.
RRIRMRPPRLPRPRPRPRLEPRP | 0.113
RRIRTRPPRLPRPRPRPHTSPRP | -0.301
RRIRKRPPRLPRPRPRPGQSPRP | 0.306
RRIRFRPPRLPRPRPRPKKQPRP | 0.0157
RRIRYRPPRLPRPRPRPFRWPRP | -0.14
RRIRERPPRLPRPRPRPGIIPRP | -0.0249
RRIRKRPPRLPRPRPRPVVFPRP | -0.0936
RRIRMRPPRLPRPRPRPLLNPRP | 0.366

For each of the items listed, what is its shrunken log2 fold change?
1. RRIRPRPPRLPRPRPRPPPTPRP
2. RRIRYRPPRLPRPRPRPQKEPRP
3. RRIRGRPPRLPRPRPRPPVIPRP
4. RRIRRRPPRLPRPRPRPVNDPRP
5. RRIRGRPPRLPRPRPRPIYHPRP

Result:
0.761
-0.245
-0.0488
0.52
-0.1

* * *

System: Escherichia coli TOP10
RUN_DESCRIPTION: shrunken log2 fold change of peptide-encoding DNA abundance (4.5 h post-induction vs induction); higher = less antimicrobial activity (less host growth inhibition)
MEASUREMENT_CONDITIONS: time post-induction: 4.5 h; library: site-saturation at positions 5, 18, 19, 20
For each entry below, report its shrunken log2 fold change value.
One number for each entry.

RRIRWRPPRLPRPRPRPVMIPRP | 0.0436
RRIRYRPPRLPRPRPRPAACPRP | 0.115
RRIRQRPPRLPRPRPRPWLPPRP | -0.181
RRIRERPPRLPRPRPRPRMAPRP | 0.2
RRIRFRPPRLPRPRPRPVIRPRP | -0.68
RRIRFRPPRLPRPRPRPFDYPRP | -0.111
RRIRHRPPRLPRPRPRPVWMPRP | -0.243
RRIRKRPPRLPRPRPRPMWDPRP | -0.0178
RRIRERPPRLPRPRPRPFWEPRP | -0.56
RRIRRRPPRLPRPRPRPMTYPRP | -0.0343

For each of the items listed, what is its shrunken log2 fold change?
1. RRIRHRPPRLPRPRPRPLHRPRP
2. RRIRRRPPRLPRPRPRPVYQPRP
3. RRIRFRPPRLPRPRPRPCVCPRP
4. RRIRTRPPRLPRPRPRPMWKPRP

Result:
1. -0.158
2. -0.384
3. 0.143
4. 0.00922

For each of the items listed, what is its shrunken log2 fold change?
1. RRIRQRPPRLPRPRPRPFAGPRP
2. RRIRTRPPRLPRPRPRPVREPRP
3. RRIRLRPPRLPRPRPRPGKMPRP
4. RRIRKRPPRLPRPRPRPPGMPRP

Result:
[0.0242, 0.139, -0.0508, 0.473]

* * *

Tested on: Escherichia coli TOP10
RUN_DESCRIPTION: shrunken log2 fold change of peptide-encoding DNA abundance (4.5 h post-induction vs induction); higher = less antimicrobial activity (less host growth inhibition)
MEASUREMENT_CONDITIONS: time post-induction: 4.5 h; library: site-saturation at positions 5, 18, 19, 20
For each entry below, report its shrunken log2 fold change value.
Numbers only.

The following sequences have reported results that may help.
RRIRSRPPRLPRPRPRPKKDPRP | 0.104
RRIRGRPPRLPRPRPRPRIAPRP | 0.519
RRIRCRPPRLPRPRPRPALKPRP | 0.0946
RRIRDRPPRLPRPRPRPVNWPRP | 0.188
RRIRQRPPRLPRPRPRPKDAPRP | 0.0166
RRIRTRPPRLPRPRPRPNADPRP | -0.00181

For each of the items listed, what is its shrunken log2 fold change?
1. RRIRFRPPRLPRPRPRPKPLPRP
2. RRIRFRPPRLPRPRPRPFRRPRP

Result:
1: 0.433; 2: -0.0629

* * *

Test system: Escherichia coli TOP10
RUN_DESCRIPTION: shrunken log2 fold change of peptide-encoding DNA abundance (4.5 h post-induction vs induction); higher = less antimicrobial activity (less host growth inhibition)
MEASUREMENT_CONDITIONS: time post-induction: 4.5 h; library: site-saturation at positions 5, 18, 19, 20
Assign classes using reported shrunken log2 fold change values and the ranges low bracket: < -0.1; middle bracket: ≥ -0.1 and < 0.1; high bracket: ≥ 0.1, please.

Request: Category of RRIRHRPPRLPRPRPRPFFRPRP , please.
Result: middle bracket

Request: Category of RRIRWRPPRLPRPRPRPLVYPRP , please.
Result: high bracket

Request: Category of RRIRLRPPRLPRPRPRPQLDPRP , please.
Result: middle bracket

Request: Category of RRIRSRPPRLPRPRPRPGKMPRP , please.
Result: middle bracket

Request: Category of RRIRNRPPRLPRPRPRPEYMPRP , please.
Result: middle bracket

* * *

Tested on: Escherichia coli TOP10
RUN_DESCRIPTION: shrunken log2 fold change of peptide-encoding DNA abundance (4.5 h post-induction vs induction); higher = less antimicrobial activity (less host growth inhibition)
MEASUREMENT_CONDITIONS: time post-induction: 4.5 h; library: site-saturation at positions 5, 18, 19, 20
READOUT: shrunken log2 fold change
Numbers only.

The following sequences have reported results that may help.
RRIRARPPRLPRPRPRPKYPPRP | -0.178
RRIRMRPPRLPRPRPRPIGPPRP | 0.069
RRIRDRPPRLPRPRPRPSCPPRP | 0.00741
RRIRSRPPRLPRPRPRPHDAPRP | -0.142
RRIRFRPPRLPRPRPRPPFEPRP | 0.347

For each of the items listed, what is its shrunken log2 fold change?
1. RRIRFRPPRLPRPRPRPKREPRP
2. RRIRARPPRLPRPRPRPNPDPRP
3. RRIRYRPPRLPRPRPRPKKGPRP

Result:
1: 0.0359; 2: 0.571; 3: -0.444

For each of the items listed, what is its shrunken log2 fold change?
1. RRIRKRPPRLPRPRPRPLEVPRP
2. RRIRDRPPRLPRPRPRPFYPPRP

Result:
0.0569
-0.109

* * *

System: Escherichia coli TOP10;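 also: peptides expressed intracellularly from a pBAD plasmid library in pooled LB shake-flask culture, induced with 0.3% L-arabinose, DNA abundance read by NGS, three biological replicates, DESeq2 with apeglm shrinkage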
RUN_DESCRIPTION: shrunken log2 fold change of peptide-encoding DNA abundance (4.5 h post-induction vs induction); higher = less antimicrobial activity (less host growth inhibition)
MEASUREMENT_CONDITIONS: time post-induction: 4.5 h; library: site-saturation at positions 5, 18, 19, 20
For each entry below, report its shrunken log2 fold change value.
Answers are plain numbers.

RRIRKRPPRLPRPRPRPTNSPRP | -0.241
RRIRYRPPRLPRPRPRPRQPPRP | 0.137
RRIRMRPPRLPRPRPRPLPMPRP | 0.429
RRIRLRPPRLPRPRPRPSLAPRP | 0.13
RRIRMRPPRLPRPRPRPQSQPRP | 0.226
RRIRLRPPRLPRPRPRPDLIPRP | -0.0276

For each of the items listed, what is its shrunken log2 fold change?
1. RRIRLRPPRLPRPRPRPIWCPRP
2. RRIRWRPPRLPRPRPRPHTAPRP

Result:
1: -0.0514; 2: -0.0505

For each of the items listed, what is its shrunken log2 fold change?
1. RRIRARPPRLPRPRPRPWWTPRP
2. RRIRQRPPRLPRPRPRPFMGPRP
3. RRIRTRPPRLPRPRPRPNHLPRP
4. RRIRYRPPRLPRPRPRPMLWPRP

Result:
0.239
-0.0627
-0.15
-0.0139

For each of the items listed, what is its shrunken log2 fold change?
1. RRIRTRPPRLPRPRPRPDIEPRP
2. RRIRYRPPRLPRPRPRPHEDPRP
3. RRIRRRPPRLPRPRPRPPGDPRP

Result:
1. -0.117
2. -0.172
3. 1.06
